Readings of pIC50 for the listed compounds
target: [35S]-TBPS binding, rat brain cortical membranes; assay: Steroid inhibition of [35S]-TBPS binding; details: 3 nM [35S]-TBPS, in the presence of 5 mM GABA
pIC50: −log10 of the molar value.

Example entries and their recorded answers appear below.
// returns reported pIC50 for input CCC[C@@]1(O)CC[C@H]2[C@H](CC[C@@H]3[C@@H]2CC[C@]2(C)[C@@H]([C@@H](C)Cn4cc(C#N)cn4)[C@H](O)C[C@@H]32)C1 [Example 362]
5.00 to 6.00

// returns reported pIC50 for input CCOC[C@@]1(O)CC[C@H]2[C@H](CC[C@@H]3[C@@H]2CC[C@]2(C)[C@@H]([C@@H](C)NS(=O)(=O)c4cccc(C#N)n4)CC[C@@H]32)C1 [Example 71]
6.00 to 7.00

// returns reported pIC50 for input CCOC[C@@]1(O)CC[C@H]2[C@H](CC[C@@H]3[C@@H]2CC[C@]2(C)[C@@H]([C@H](C)Cc4cccc(C#N)c4)CC[C@@H]32)C1 [Example 403]
6.00 to 7.00

// returns reported pIC50 for input CC[C@@]1(O)CC[C@H]2[C@H](CC[C@@H]3[C@@H]2CC[C@]2(C)[C@@H]([C@H](C)Cn4cc(C#N)cn4)CC[C@@H]32)C1 [Example 276]
> 7.00

Then there is this compound:
// returns reported pIC50 for input C[C@H]([C@H]1CC[C@H]2[C@@H]3CC[C@@H]4C[C@](C)(O)CC[C@@H]4[C@H]3CC[C@]12C)N(C)C(=O)c1ccccc1 [Example 20]
6.00 to 7.00

// data source = patent US20230322846A9
